target.entity: Oxysterols receptor LXR-beta (Homo sapiens, UniProt P55055)
Sequence (P55055 whole entry, the tested form may be a part): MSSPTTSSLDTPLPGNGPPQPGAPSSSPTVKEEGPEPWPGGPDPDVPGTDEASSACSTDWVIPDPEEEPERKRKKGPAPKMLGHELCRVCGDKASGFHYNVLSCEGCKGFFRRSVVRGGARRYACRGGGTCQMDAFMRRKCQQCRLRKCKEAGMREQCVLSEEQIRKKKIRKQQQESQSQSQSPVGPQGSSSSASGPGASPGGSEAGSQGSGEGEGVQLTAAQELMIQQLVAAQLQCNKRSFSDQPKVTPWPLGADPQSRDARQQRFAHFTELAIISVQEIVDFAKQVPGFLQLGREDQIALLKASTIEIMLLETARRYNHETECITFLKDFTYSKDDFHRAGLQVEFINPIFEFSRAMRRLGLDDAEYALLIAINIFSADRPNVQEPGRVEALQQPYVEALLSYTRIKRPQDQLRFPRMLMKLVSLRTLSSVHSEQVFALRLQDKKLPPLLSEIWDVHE
experiment.description: Agonist activity at LXRbeta LBD by HTRF cofactor peptide recruitment assay
Format: functional
readout.label: pEC50
Please keep in mind that pEC50 is minus log10 of the molar concentration; only the number is needed.

Previously resolved entries follow.
{"columns": ["molecule", "pEC50"],
 "data": [
  ["CC(C)(C)OC(=O)n1c(-c2ccc3c(c2)CC(NS(=O)(=O)c2ccc(-c4ccon4)s2)C3)cc2ccccc21 (stereo not given)", 6.17],
  ["Cc1ccc2c(c1)cc(-c1ccc3c(c1)CC(NS(=O)(=O)c1ccccc1)C3)n2C(=O)OC(C)(C)C (stereo not given)", 4.74]
]}

Lab book: pEC50 of CC(C)(C)OC(=O)n1c(-c2ccc3c(c2)CC(NS(=O)(=O)c2c(F)cccc2F)C3)cc2ccccc21 (stereo not given) noted as 7.05

----------
target.entity: Oxysterols receptor LXR-beta (Homo sapiens, UniProt P55055)
experiment.description: Activation of LXRbeta co-transfected in COS7 cells with RXRalpha by reporter transactivation assay
Type: functional, cell-based, COS-7
readout.label: pEC50
Please report pEC50 as the negative decimal logarithm of the molar concentration, giving only the number.

{"columns": ["compound", "observed.measurement"],
 "data": [
  ["CC(C)(C)OC(=O)n1c(-c2ccc3c(c2)CC(NS(=O)(=O)c2c(F)cccc2F)C3)cc2ccccc21 (stereo not given)", 7.28],
  ["CC(C)(C)OC(=O)n1c(-c2ccc3c(c2)CC(NS(=O)(=O)c2cccs2)C3)cc2ccccc21 (stereo not given)", 6.44],
  ["CC(C)(C)OC(=O)n1c(-c2ccc3c(c2)CC(NS(=O)(=O)c2ccc(F)cc2)C3)cc2ccccc21 (stereo not given)", 6.92],
  ["CC(C)(C)OC(=O)n1c(-c2ccc3c(c2)CC(NS(=O)(=O)c2ccccc2)C3)cc2ccccc21 (stereo not given)", 7.19]
]}

Kindly note the recorded pEC50 for CC(C)(C)OC(=O)n1c(-c2ccc3c(c2)CC(NS(=O)(=O)c2ccc(-c4ccon4)s2)C3)cc2ccccc21 (stereo not given) , which is 6.47

----------
target.entity: Oxysterols receptor LXR-beta (Homo sapiens, UniProt P55055)
experiment.description: Agonist activity at LXRbeta LBD by HTRF cofactor peptide recruitment assay
Assay type: functional
pEC50: −log10 of the molar value.
The threshold is inclusive: pEC50 of exactly 6 counts as y; values below receive n.

Solved entries:
{"columns": ["compound", "category.label"],
 "data": [
  ["Cc1ccc2cc(-c3ccc4c(c3)CC(NS(=O)(=O)c3ccccc3)C4)n(C(=O)OC(C)(C)C)c2c1 (centres undefined)", "y"],
  ["O=S(=O)(NC1Cc2ccc(-c3cc4ccccc4n3CCc3ccccc3)cc2C1)c1ccccc1 (centres undefined)", "n"],
  ["COC(=O)n1c(-c2ccc3c(c2)CC(NS(=O)(=O)c2ccccc2)C3)cc2ccccc21 (centres undefined)", "n"],
  ["CC(C)(C)OC(=O)n1c(-c2ccc3c(c2)CC(NS(=O)(=O)c2ccccc2C#N)C3)cc2ccccc21 (centres undefined)", "y"],
  ["Cc1ccc(S(=O)(=O)NC2Cc3ccc(-c4cc5ccccc5n4C(=O)OC(C)(C)C)cc3C2)cc1 (centres undefined)", "y"]
]}

Now consider the entry below.
Q: Has `CC(C)(C)OC(=O)n1c(-c2ccc3c(c2)C[C@@H](NS(=O)(=O)c2ccccc2)C3)cc2ccccc21` a recorded pEC50 greater than or equal to 6?
Result: y

Attribution: ChEMBL document CHEMBL1139922
